Value source: the supplement of paper PMC12645437

experimental.target: T1, CRBN, Q96SW2;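 also: pooled lentiviral library of zinc finger degron-EGFP fusions in mCherry-positive Jurkat cells, FACS-sorted after compound exposure, with degron abundance counted by next-generation sequencing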
T1 chain: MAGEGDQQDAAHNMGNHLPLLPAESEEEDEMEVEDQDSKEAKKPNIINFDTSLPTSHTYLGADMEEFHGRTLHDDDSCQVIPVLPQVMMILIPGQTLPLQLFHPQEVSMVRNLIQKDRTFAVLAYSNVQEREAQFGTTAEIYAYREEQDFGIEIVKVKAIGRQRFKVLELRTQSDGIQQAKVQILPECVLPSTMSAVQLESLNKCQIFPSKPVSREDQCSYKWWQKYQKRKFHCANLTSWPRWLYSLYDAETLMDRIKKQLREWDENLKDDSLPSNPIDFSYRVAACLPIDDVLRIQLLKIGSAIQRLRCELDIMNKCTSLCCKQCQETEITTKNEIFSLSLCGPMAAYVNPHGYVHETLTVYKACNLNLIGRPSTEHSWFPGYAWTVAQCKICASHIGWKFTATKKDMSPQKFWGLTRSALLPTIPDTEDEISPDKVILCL
test.details: log2 fold change of degron read counts, EGFP-low vs EGFP+ sorted cells (limma voom), compound-induced degradation; higher = more compound-induced degradation of the degron-EGFP fusion; degrons are variants of IKZF1/3 zinc finger 2; compound dose not given here
assay.context: Jurkat; 18 h; compound: compound 33 (diphenyl IMiD analogue)
Over roughly 8,300 sequences, “log2 fold change of degron read counts, EGFP-low vs EGFP+ sorted cells (limma voom), compound-induced degradation” has its median near -1.1; the highest 2% begin near 3.2. This is one part of a sample in which the highest values are shown more often than they occur.
Note to self: class = bucket of log2 fold change of degron read counts, per Low: < -2; Mid: ≥ -2 and < 0.5; High: ≥ 0.5

Consider the worked cases shown below.
LLCNQCGFMCTQKGNLLRHIKL [46L_47L_49N_50Q_52G_53F_54M_55C_67L_, Q9UKT9]: Mid
FCCNQCGHNFTQKGNLLRHIKL [46F_47C_49N_50Q_52G_53H_54N_55F_67L_, Q9UKT9]: Low
LFCPICGFGCTQKGNLLRHIKL [46L_47F_49P_50I_52G_53F_54G_55C_67L_, Q9UKT9]: High
FYCDQCGAIFTQKGNLLRHIKL [46F_47Y_49D_50Q_52G_53A_54I_55F_67L_, Q9UKT9]: Mid
FECEICGRNFTQKGNLLRHIKL [46F_47E_49E_50I_52G_53R_54N_55F_67L_, Q9UKT9]: Mid
FGCEICGARFTQKGNLLRHIKL [46F_47G_49E_50I_52G_53A_54R_55F_67L_, Q9UKT9]: Mid
FLCDQCGASFTQKGNLLRHIKL [46F_47L_49D_50Q_52G_53A_54S_55F_67L_, Q9UKT9]: Mid
FECSVCGHCFTQKGNLLRHIKL [46F_47E_49S_50V_52G_53H_54C_55F_67L_, Q9UKT9]: Low

Attention now shifts to the item below.
Sort LWCPICGFACTQKGNLLRHIKL [46L_47W_49P_50I_52G_53F_54A_55C_67L_, Q9UKT9] into one of the categories.
High
